Attribution: PubChem BioAssay AID1745844

- System: rodent lifetime carcinogenesis bioassay, tumor incidence TD50
- assay.protocol: carcinogenic potency in animals, long-term in vivo studies, CPDB compilation (AID 1745844)
- experimental.context: mouse; strain B6C3F1; females; i.p.; site: all sites; lesion: lymphoma; dosed 52 weeks; study length 80 weeks
observable: TD50

query.smiles	observable	value.observed
CNNCc1ccc(C(=O)NC(C)C)cc1	TD50	0.855 mg/kg/day

---

- Test system: rodent lifetime carcinogenesis bioassay, tumor incidence TD50
- assay.protocol: carcinogenic potency in animals, long-term in vivo studies, CPDB compilation (AID 1745844)
- experimental.context: mouse; strain CD-1 HaM/ICR; males; in feed; site: any site (literature study); lesion: several types; types named in the paper; dosed 68 weeks; study length 90 weeks

query.smiles	TD50
Cc1ccccc1N	325 mg/kg/day
